What pKi was measured for each of the following?
# study target: UniProtKB P61964
# assay: TR-FRET binding assay (displacement of 10mer-Thr-FAM probe from WDR5)
# test settings: read-out: Ki for Inhibition of WDR5 by TR-FRET assay
Please report pKi as the negative decimal logarithm of the molar concentration, giving only the number.

Query: pKi for Cc1ccnc(C(NC(=O)c2cc(Cn3ccn(C)c3=N)cc(-c3ncnc4c3CCCC4)c2)C2CC2)c1 (centres unmarked) [Example 95] ?
Result: 7.70

Query: pKi for Cc1cc([C@@H](NC(=O)c2cc(Cn3c(C)coc3=N)cc(-c3cccnc3C(F)(F)F)c2)C2CC2)ccc1F [Example 252] ?
Result: 7.68

Query: pKi for C[C@H](NC(=O)c1cc(Cn2ccoc2=N)cc(-c2cccnc2C(F)(F)F)c1)c1ccc(F)c(Cl)c1 [Example 257] ?
Result: 8.70

Query: pKi for Cc1cc([C@@H](NC(=O)c2cc(Cn3cccc(F)c3=N)cc(-c3cc(C(F)(F)F)nn3C)c2)C2CC2)ccc1F [Example 345] ?
Result: 8.62

Query: pKi for COc1cc(CNC(=O)c2cc(Cn3ccoc3=N)cc(-c3ncc(F)cc3C)c2)cc(OC)c1 [Example 238] ?
Result: 8.54

Query: pKi for COc1cc(CNC(=O)c2cc(CN3CCSC3=N)cc(-c3ccc(F)cc3C)c2)cc(OC)c1 [Example 308] ?
Result: 9.35

Query: pKi for CCn1cc(-c2cc(CN3CCSC3=N)cc(C(=O)NCc3ccc(=O)n(C)c3)c2)c(C(F)(F)F)n1 [Example 323] ?
Result: 8.74

====

# study target: WDR5 (Homo sapiens (Human))
# assay: TR-FRET binding assay (displacement of 10mer-Thr-FAM probe from WDR5)
measure: Ki

Query: Find Ki (WDR5 (Homo sapiens (Human))) for the entry "COc1cc(CNC(=O)c2cc(Cn3ccn(C)c3=N)cc(-c3ccc(F)cc3C(N)=O)c2)cc(OC)c1"
Result: 8.9 nM

Query: Find Ki (WDR5 (Homo sapiens (Human))) for the entry "COc1cc(CNC(=O)c2cc(Cn3ccoc3=N)cc(-c3ccc(F)cc3C)c2)cc(OC)c1"
Result: 0.21 nM

Query: Find Ki (WDR5 (Homo sapiens (Human))) for the entry "Cc1cc([C@H](C)NC(=O)c2cc(Cn3ccn(C)c3=N)cc(-c3ccc(F)cc3C(F)(F)F)c2F)ccc1F"
Result: < 0.1 nM

Query: Find Ki (WDR5 (Homo sapiens (Human))) for the entry "CCn1cc(-c2cc(CN3CCN(C)C3=N)cc(C(=O)N[C@H](c3ccc(F)c(Cl)c3)C3CC3)c2)c(C(F)(F)F)n1"
Result: < 0.1 nM

Query: Find Ki (WDR5 (Homo sapiens (Human))) for the entry "COc1cc([C@@H](NC(=O)c2cc(Cn3ccoc3=N)cc(-c3cn(C)nc3C(F)(F)F)c2)C2CC2)ncc1F"
Result: < 0.1 nM

Query: Find Ki (WDR5 (Homo sapiens (Human))) for the entry "Cn1ccn(Cc2cc(C(=O)N[C@H]3CCc4cc(F)ccc43)cc(-c3cccnc3C(F)(F)F)c2)c1=N"
Result: > 33 nM

Query: Find Ki (WDR5 (Homo sapiens (Human))) for the entry "COc1cc(CNC(=O)c2cc(Cn3ccn(-c4ccccc4)c3=N)cc(-c3ccc(F)cc3C)c2)cc(OC)c1"
Result: > 33 nM
